Catalogue of melting point values
State the answer as a number, implicitly in °C.

Record excerpt, results attached:
1. CS(=O)(=O)c1ccc(-n2cc(CF)nc2-c2ccc(Cl)cc2)cc1
165
2. CS(=O)(=O)c1ccc(-c2nc(C(F)(F)F)cn2-c2ccc(F)cc2)cc1
183

Suppose we examine the compound CS(=O)(=O)c1ccc(-n2cc(C#N)nc2-c2ccc(Cl)cc2)cc1 ; what melting point value has been reported? 205

Suppose we examine the compound CS(=O)(=O)c1ccc(-n2cc(CSCc3ccccc3)nc2-c2ccc(Cl)cc2)cc1 ; what melting point value has been reported? 41

Suppose we examine the compound Cc1ccc(OCc2cn(-c3ccc(S(C)(=O)=O)cc3)c(-c3ccc(Cl)cc3)n2)cc1 ; what melting point value has been reported? 193
